Tested on: Hepatitis C virus
Assay: Antiviral activity against Hepatitis C virus subtype 1b Con1 infected in human Huh7 cells assessed as inhibition of HCV replicon-encoded Renilla luciferase reporter activity after 72 hrs by HCV replicon assay
Assay type: functional, organism-based, Hepacivirus hominis
Details: Con1, Huh-7, 72 h
Examples of compounds with documented EC90 follow.
parameterMeasured: EC90 (nM)

compound="COc1nc(N)nc2c1ncn2[C@@H]1O[C@H](COP(=O)(NCC(=O)OCC(C)(C)C)NCC(=O)OCC(C)(C)C)[C@@H](O)[C@@]1(C)O (mixture of isomers)" targetsystem="Hepatitis C virus" scaleunit=nM relationaloperator== readoutnumber=600
compound="COc1nc(N)nc2c1ncn2[C@@H]1O[C@H](COP(=O)(N[C@H](C(=O)OCC(C)(C)C)c2ccccc2)N[C@H](C(=O)OCC(C)(C)C)c2ccccc2)[C@@H](O)[C@@]1(C)O (mixture of isomers)" targetsystem="Hepatitis C virus" scaleunit=nM relationaloperator== readoutnumber=1500
compound="CCCCNP(=O)(N[C@@H](C)C(=O)OCc1ccccc1)OC[C@H]1O[C@@H](n2cnc3c(OC)nc(N)nc32)[C@](C)(O)[C@@H]1O (mixture of isomers)" targetsystem="Hepatitis C virus" scaleunit=nM relationaloperator== readoutnumber=1680
compound="COC(=O)[C@H](Cc1ccc(OC(C)(C)C)cc1)NP(=O)(N[C@@H](Cc1ccc(OC(C)(C)C)cc1)C(=O)OC)OC[C@H]1O[C@@H](n2cnc3c(OC)nc(N)nc32)[C@](C)(O)[C@@H]1O (mixture of isomers)" targetsystem="Hepatitis C virus" scaleunit=nM relationaloperator== readoutnumber=500
compound="CCN(CC)P(=O)(N[C@@H](C)C(=O)OCC(C)(C)C)OC[C@H]1O[C@@H](n2cnc3c(OC)nc(N)nc32)[C@](C)(O)[C@@H]1O (mixture of isomers)" targetsystem="Hepatitis C virus" scaleunit=nM relationaloperator=> readoutnumber=10000
compound="COc1nc(N)nc2c1ncn2[C@@H]1O[C@H](COP(=O)(N2CCOCC2)N2CCOCC2)[C@@H](O)[C@@]1(C)O (mixture of isomers)" targetsystem="Hepatitis C virus" scaleunit=nM relationaloperator=> readoutnumber=100000
compound="CCOc1nc(N)nc2c1ncn2[C@@H]1O[C@H](COP(=O)(N[C@@H](C)C(=O)OCC(C)(C)C)N[C@@H](C)C(=O)OCC(C)(C)C)[C@@H](O)[C@@]1(C)O (mixture of isomers)" targetsystem="Hepatitis C virus" scaleunit=nM relationaloperator== readoutnumber=110
compound="COC(=O)[C@@H](NP(=O)(N[C@@H](C)C(=O)OCC(C)(C)C)OC[C@H]1O[C@@H](n2cnc3c(OC)nc(N)nc32)[C@](C)(O)[C@@H]1O)C(C)C (mixture of isomers)" targetsystem="Hepatitis C virus" scaleunit=nM relationaloperator== readoutnumber=690
compound="COc1nc(N)nc2c1ncn2[C@@H]1O[C@H](COP(=O)(N[C@@H](CCSC)C(=O)OCC(C)(C)C)N[C@@H](CCSC)C(=O)OCC(C)(C)C)[C@@H](O)[C@@]1(C)O (mixture of isomers)" targetsystem="Hepatitis C virus" scaleunit=nM relationaloperator== readoutnumber=5000
compound="COc1nc(N)nc2c1ncn2[C@@H]1O[C@H](COP(=O)(NCC(=O)OCc2ccccc2)NCC(=O)OCc2ccccc2)[C@@H](O)[C@@]1(C)O (mixture of isomers)" targetsystem="Hepatitis C virus" scaleunit=nM relationaloperator== readoutnumber=1800

Cited source for all entries: ChEMBL document CHEMBL2150978
